Each recorded value in this set is attributed to the NIST ThermoML archive (doi:10.1016/j.jct.2012.11.016).

# Test Conditions: 303.15 K; 101.33 kPa; Liquid; Vibrating tube method
For each entry below, report its mass density value.
Numbers only, in kg/m3.

The examples below pair each entry with its known result.
Smiles Data | mass density / kg/m3
O | 995.4
OCCCO | 1046.2
OCCO | 1106

Proceeding to the next molecule to report its mass density.
## Input For the molecule OCCCCO , what mass density is on record?
## Output 1010.6

----------
# Test Conditions: 303.15 K; 101.33 kPa; Liquid; Capillary tube (Ostwald / Ubbelohde) method
Measure Name: viscosity (mPa·s)
Give bare numbers, in mPa·s.

The examples below pair each entry with its known result.
Molecule | viscosity / mPa·s
OCCO [1,2-ethanediol] | 13.59
OCCCCO [1,4-butanediol] | 56.43
O [water] | 0.728

Proceeding to the next molecule to report its viscosity.
## Input For the molecule OCCCO [propan-1,3-diol] , what viscosity is on record?
## Output 32.78
